assay: Agonist activity at vitamin D3 receptor in human HL-60 cells assessed as induction of cell differentiation after 96 hrs by NBT dye-based microscopic analysis
pEC50: −log10 of the molar value.
Please assign a class to every record based on measured pEC50, with ranges band A (below 6), band B (6 to below 7), band C (7 or more)

>  <compound>
CC[C@@H](C)[C@H](NC(=O)c1ccc(C(CC)(CC)c2ccc(OCC(=O)C(C)(C)C)c(C)c2)n1CC)C(=O)O

>  <category-label>
band C

$$$$
>  <compound>
CCOc1ccc(NC(=O)c2ccc(C(CC)(CC)c3ccc(OCC(=O)C(C)(C)C)c(C)c3)n2CC)cc1

>  <category-label>
band A

$$$$
>  <compound>
CCn1c(C(=O)NCCCN(C)C)ccc1C(CC)(CC)c1ccc(OCC(O)C(C)(C)C)c(C)c1 (centres undefined)

>  <category-label>
band C

$$$$
>  <compound>
CCn1c(C(=O)N(C)c2ccccc2)ccc1C(CC)(CC)c1ccc(OCC(=O)C(C)(C)C)c(C)c1

>  <category-label>
band A

$$$$
>  <compound>
CCn1c(C(=O)NCCBr)ccc1C(CC)(CC)c1ccc(OCC(=O)C(C)(C)C)c(C)c1

>  <category-label>
band A

$$$$
>  <compound>
CCn1c(C(=O)NCCCN2CCOCC2)ccc1C(CC)(CC)c1ccc(OCC(=O)C(C)(C)C)c(C)c1

>  <category-label>
band B

$$$$
>  <compound>
CCN(CC)CCCNC(=O)c1ccc(C(CC)(CC)c2ccc(OCC(=O)C(C)(C)C)c(C)c2)n1CC

>  <category-label>
band C

$$$$
>  <compound>
CCn1c(C(=O)NCCN)ccc1C(CC)(CC)c1ccc(OCC(O)C(C)(C)C)c(C)c1 (centres undefined)

>  <category-label>
band C

$$$$
>  <compound>
CCC(CC)(c1ccc(OCC(=O)C(C)(C)C)c(C)c1)c1ccc(OCC(=O)C(C)(C)C)c(C)c1 [LG190155]

>  <category-label>
band B

$$$$
>  <compound>
CCOC(=O)CN(C)C(=O)c1ccc(C(CC)(CC)c2ccc(OCC(O)C(C)(C)C)c(C)c2)n1CC (centres undefined)

>  <category-label>
band B

$$$$
>  <compound>
CCn1c(C(=O)N(C)c2ccccc2)ccc1C(CC)(CC)c1ccc(OCC(O)C(C)(C)C)c(C)c1 (centres undefined)

>  <category-label>
band A

$$$$
>  <compound>
CC[C@@H](C)[C@H](NC(=O)c1ccc(C(CC)(CC)c2ccc(OCC(O)C(C)(C)C)c(C)c2)n1CC)C(=O)O (some centres undefined)

>  <category-label>
band C

$$$$
>  <compound>
CCn1c(C(=O)N(C)CCC#N)ccc1C(CC)(CC)c1ccc(OCC(=O)C(C)(C)C)c(C)c1

>  <category-label>
band A

$$$$
>  <compound>
C#CCCOC(=O)c1ccc(C(CC)(CC)c2ccc(OCC(=O)C(C)(C)C)c(C)c2)n1CC

>  <category-label>
band A

$$$$
>  <compound>
C#CC(C)OC(=O)c1ccc(C(CC)(CC)c2ccc(OCC(O)C(C)(C)C)c(C)c2)n1CC (centres undefined)

>  <category-label>
band B

$$$$
>  <compound>
CCOC(=O)CC(C)OC(=O)c1ccc(C(CC)(CC)c2ccc(OCC(=O)C(C)(C)C)c(C)c2)n1CC (centres undefined)

>  <category-label>
band A

$$$$
>  <compound>
CCOC(=O)c1ccc(OC(=O)c2ccc(C(CC)(CC)c3ccc(OCC(=O)C(C)(C)C)c(C)c3)n2CC)cc1

>  <category-label>
band A

$$$$
>  <compound>
CC[C@@H](C)[C@H](NC(=O)c1ccc(C(CC)(CC)c2ccc(OCC(=O)C(C)(C)C)c(C)c2)n1CC)C(=O)OC

>  <category-label>
band B

$$$$
>  <compound>
CCn1c(C(=O)OCc2ccc(F)cc2)ccc1C(CC)(CC)c1ccc(OCC(O)C(C)(C)C)c(C)c1 (centres undefined)

>  <category-label>
band A

$$$$
>  <compound>
CCn1c(C(=O)Nc2cccc(C(F)(F)F)c2)ccc1C(CC)(CC)c1ccc(OCC(=O)C(C)(C)C)c(C)c1

>  <category-label>
band A

$$$$
>  <compound>
CCOC(=O)c1ccc(OC(=O)c2ccc(C(CC)(CC)c3ccc(OCC(O)C(C)(C)C)c(C)c3)n2CC)cc1 (centres undefined)

>  <category-label>
band A

$$$$
>  <compound>
CCOc1ccc(NC(=O)c2ccc(C(CC)(CC)c3ccc(OCC(O)C(C)(C)C)c(C)c3)n2CC)cc1 (centres undefined)

>  <category-label>
band B

$$$$
>  <compound>
CCn1c(C(=O)Nc2ccc(OC(F)(F)F)cc2)ccc1C(CC)(CC)c1ccc(OCC(O)C(C)(C)C)c(C)c1 (centres undefined)

>  <category-label>
band A

$$$$
>  <compound>
C=CCN(C)C(=O)c1ccc(C(CC)(CC)c2ccc(OCC(O)C(C)(C)C)c(C)c2)n1CC (centres undefined)

>  <category-label>
band A

$$$$
>  <compound>
CC[C@@H](C)[C@H](NC(=O)c1ccc(C(CC)(CC)c2ccc(OCC(O)C(C)(C)C)c(C)c2)n1CC)C(=O)OC (some centres undefined)

>  <category-label>
band C

$$$$
>  <compound>
CCn1c(C(=O)OC(C)CCO)ccc1C(CC)(CC)c1ccc(OCC(=O)C(C)(C)C)c(C)c1 (centres undefined)

>  <category-label>
band B

$$$$
